PROTOCOL_DETAILS: Determination of bioavailability (blood levels, ex-vivo bioassay)
Type: in vivo
CONDITION_SUMMARY: mouse, blood, po, 50 mg/kg, mice, 50 mg/kg p.o., 1 h; read-out: blood level, P.o. method, 1 h
The label depends only on concentration at 1 h: label 1 if it is at least 600 ng/mL, label 0 if it is smaller.

The following compounds have reported results that may help.
{"COMPOUND": "CNC(=O)[C@H](Cc1ccc(OC)cc1)NC(=O)[C@](O)(CC(C)C)[C@H](C)C(=O)NO [drawing 114]", "CATEGORY_LABEL": "label 0"}
{"COMPOUND": "CC(C)C[C@@](O)(C(=O)N[C@@H](Cc1ccc(Cl)cc1)C(=O)NCCN1CCOCC1)[C@H](C)C(=O)NO [drawing 116]", "CATEGORY_LABEL": "label 0"}
{"COMPOUND": "CC(C)C[C@@](O)(C(=O)N[C@@H](Cc1ccc(Cl)c(Cl)c1)C(=O)NCCN1CCOCC1)[C@H](C)C(=O)NO [drawing 119]", "CATEGORY_LABEL": "label 0"}
{"COMPOUND": "CNC(=O)[C@H](Cc1ccc(OC)cc1)NC(=O)C(O)(CC(C)C)[C@H](O)C(=O)NO (some centres unmarked)", "CATEGORY_LABEL": "label 1"}

*Q* Is the recorded value of concentration at 1 h equal to or greater than 600 ng/mL for this compound? CNC(=O)[C@@H](NC(=O)[C@H](CC(C)C)[C@H](O)C(=O)NO)C(C)C
*A* label 0

----------
Below, each entry is listed with its recorded blood level, P.o. method, 20′.
PROTOCOL_DETAILS: Determination of bioavailability (blood levels, ex-vivo bioassay)
Type: in vivo
CONDITION_SUMMARY: mice, 50 mg/kg p.o., 20′
Write down the value, and be sure its unit follows.

Below, 3 compounds whose answers are already recorded.
{"COMPOUND": "CC(C)C[C@@](O)(C(=O)N[C@@H](Cc1ccc(Cl)c(Cl)c1)C(=O)NCCN1CCOCC1)[C@H](C)C(=O)NO [drawing 119]", "blood level, P.o. method, 20′": "0.8 µg/mL"}
{"COMPOUND": "CC(C)C[C@@](O)(C(=O)N[C@@H](Cc1ccc(Cl)cc1)C(=O)NCCN1CCOCC1)[C@H](C)C(=O)NO [drawing 116]", "blood level, P.o. method, 20′": "3.1 µg/mL"}
{"COMPOUND": "CC(C)C[C@@](O)(C(=O)N[C@@H](Cc1ccc(Cl)c(Cl)c1)C(=O)NCCN1CCOCC1)[C@H](C)C(=O)NO [drawing 118]", "blood level, P.o. method, 20′": "0.1 µg/mL"}

Now for the compound whose blood level, P.o. method, 20′ we want.
*Q* Give reported blood level, P.o. method, 20′ value for CC(C)C[C@@](O)(C(=O)N[C@@H](Cc1ccc(Cl)cc1)C(=O)NCCN1CCOCC1)[C@H](C)C(=O)NO [drawing 115]
*A* 1.2 µg/mL

----------
Below, each entry is listed with its recorded IC50.
MEASURED_TARGET: collagenase of the human monocytic stock U937 (Homo sapiens, UniProt P03956)
Construct: the collagenase of the human monocytic stock U937; endogenous in cells; host or cells: U937 human monocytic cell line
Sequence (P03956 100-469): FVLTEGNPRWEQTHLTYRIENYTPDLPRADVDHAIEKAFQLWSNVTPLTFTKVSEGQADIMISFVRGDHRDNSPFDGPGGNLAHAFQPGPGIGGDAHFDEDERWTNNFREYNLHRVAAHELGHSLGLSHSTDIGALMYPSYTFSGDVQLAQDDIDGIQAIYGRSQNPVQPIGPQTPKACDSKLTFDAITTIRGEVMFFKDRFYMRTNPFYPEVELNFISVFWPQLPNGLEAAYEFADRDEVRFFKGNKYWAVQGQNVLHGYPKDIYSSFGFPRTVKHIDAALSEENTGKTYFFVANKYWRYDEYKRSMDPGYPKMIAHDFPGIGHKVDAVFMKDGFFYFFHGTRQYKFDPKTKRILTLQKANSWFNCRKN
PROTOCOL_DETAILS: Activity on collagenase
Type: biochemical
CONDITION_SUMMARY: radiomarked collagen, 27° C., 16 hours; read-out: C150 (nM) collagenase

{"MOLECULE": "CNC(=O)[C@H](Cc1ccc(Cl)cc1)NC(=O)[C@](O)(CC(C)C)[C@H](O)C(=O)NO [Example 3]", "IC50": "50 nM"}
{"MOLECULE": "CNC(=O)[C@H](Cc1ccc(Cl)c(Cl)c1)NC(=O)[C@@](O)(CS)CC(C)C [Example 37]", "IC50": "> 1000 nM"}
{"MOLECULE": "CNC(=O)[C@H](Cc1ccc(OC)cc1)NC(=O)[C@](O)(CC(C)C)C(C)N(O)C=O (mixture of isomers) [Example 38]", "IC50": "130 nM"}

*Q* Give reported IC50 value for CC(C)C[C@@](O)(C(=O)N[C@@H](Cc1ccc(Cl)c(Cl)c1)C(=O)NCCOCCO)[C@H](C)C(=O)NO [Example 19]
*A* 7 nM

*Q* Give reported IC50 value for CNC(=O)[C@H](Cc1ccc(OC)cc1)NC(=O)[C@](O)(CC(C)C)[C@H](OC)C(=O)NO [Example 31]
*A* 120 nM

*Q* Give reported IC50 value for CSCCNC(=O)[C@H](Cc1ccc(Cl)cc1)NC(=O)[C@](O)(CC(C)C)[C@H](C)C(=O)NO [Example 13]
*A* 10 nM

*Q* Give reported IC50 value for CNC(=O)[C@H](Cc1ccc(Br)cc1)NC(=O)[C@](O)(CC(C)C)[C@H](C)C(=O)NO [Example 11]
*A* 10 nM

----------
MEASURED_TARGET: stromelysine of human origin (Homo sapiens, UniProt P08254)
Sequence (P08254 100-477): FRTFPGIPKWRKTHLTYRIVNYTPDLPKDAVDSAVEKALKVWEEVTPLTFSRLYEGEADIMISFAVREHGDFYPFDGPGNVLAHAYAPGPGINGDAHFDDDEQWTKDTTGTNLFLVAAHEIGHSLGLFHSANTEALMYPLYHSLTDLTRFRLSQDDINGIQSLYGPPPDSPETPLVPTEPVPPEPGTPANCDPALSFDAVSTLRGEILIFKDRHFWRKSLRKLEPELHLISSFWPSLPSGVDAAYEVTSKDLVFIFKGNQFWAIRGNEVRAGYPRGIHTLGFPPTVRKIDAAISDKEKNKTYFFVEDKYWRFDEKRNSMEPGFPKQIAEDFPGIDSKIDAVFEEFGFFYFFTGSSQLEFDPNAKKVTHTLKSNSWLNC
PROTOCOL_DETAILS: Activity on stromelysine
Format: biochemical
CONDITION_SUMMARY: radiomarked transferrin, 37° C., 16 hours; read-out: C150 (nM) stromelysine
Below, each entry is listed with its recorded IC50.

Below, 2 compounds whose answers are already recorded.
{"COMPOUND": "CNC(=O)[C@H](Cc1ccc(Cl)cc1)NC(=O)[C@](O)(CC(C)C)[C@H](C)C(=O)NO [Example 10]", "MEASURED_TARGET": "stromelysine of human origin (Homo sapiens, UniProt P08254)", "PROPERTY": "IC50", "REPORTED_MEASUREMENT": "48 nM"}
{"COMPOUND": "CNC(=O)[C@H](Cc1ccc(Cl)cc1)NC(=O)[C@](O)(CC(C)C)[C@H](O)C(=O)NO [Example 3]", "MEASURED_TARGET": "stromelysine of human origin (Homo sapiens, UniProt P08254)", "PROPERTY": "IC50", "REPORTED_MEASUREMENT": "> 1000 nM"}

*Q* Give reported IC50 value for CNC(=O)[C@H](Cc1ccc(Cl)c(Cl)c1)NC(=O)[C@](O)(CC(C)C)[C@H](O)C(=O)NO [Example 30]
*A* > 1000 nM

----------
Below, each entry is listed with its recorded IC50.
MEASURED_TARGET: 92 kDa gelatinase of human origin (Homo sapiens)
Sequence (P14780 94-707): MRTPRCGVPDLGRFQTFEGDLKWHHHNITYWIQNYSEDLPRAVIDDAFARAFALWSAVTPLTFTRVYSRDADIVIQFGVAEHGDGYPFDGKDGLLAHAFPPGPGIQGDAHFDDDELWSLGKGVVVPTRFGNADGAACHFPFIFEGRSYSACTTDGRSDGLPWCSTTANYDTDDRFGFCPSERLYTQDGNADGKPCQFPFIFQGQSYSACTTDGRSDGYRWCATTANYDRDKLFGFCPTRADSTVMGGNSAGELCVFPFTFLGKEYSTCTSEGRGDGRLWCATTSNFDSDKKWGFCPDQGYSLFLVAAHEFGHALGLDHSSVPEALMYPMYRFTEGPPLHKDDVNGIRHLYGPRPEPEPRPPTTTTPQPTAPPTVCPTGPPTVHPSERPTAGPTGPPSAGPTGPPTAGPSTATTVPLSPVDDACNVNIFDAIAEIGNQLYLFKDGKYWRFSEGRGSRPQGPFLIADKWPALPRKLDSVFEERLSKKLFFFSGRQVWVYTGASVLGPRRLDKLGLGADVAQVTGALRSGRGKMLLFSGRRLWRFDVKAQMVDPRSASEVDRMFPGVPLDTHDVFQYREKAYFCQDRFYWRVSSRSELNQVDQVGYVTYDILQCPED
PROTOCOL_DETAILS: Activity on gelatinase, radiomarked gelatin
Format: biochemical
CONDITION_SUMMARY: test performed with radiomarked gelatin; read-out: C150 (nM) gelatinase 92 kDa*
Write the value in nM as a bare number.

{"COMPOUND": "CNC(=O)[C@H](Cc1ccc(OC)cc1)NC(=O)[C@](O)(CC(C)C)[C@H](C)S", "REPORTED_MEASUREMENT": 23}
{"COMPOUND": "CC(C)C[C@@](O)(C(=O)NC(Cc1ccc(Cl)cc1)C(=O)NCCN1CCOCC1)[C@H](C)C(=O)NO (some centres unmarked) [Example 12b]", "REPORTED_MEASUREMENT": 8}
{"COMPOUND": "CNC(=O)[C@H](Cc1ccc(OC)cc1)NC(=O)[C@](O)(CC(C)C)[C@H](O)C(=O)NO", "REPORTED_MEASUREMENT": 80}
{"COMPOUND": "CNC(=O)[C@H](Cc1ccc(I)cc1)NC(=O)[C@](O)(CC(C)C)[C@H](C)C(=O)NO", "REPORTED_MEASUREMENT": 0.2}
{"COMPOUND": "C[C@H](C(=O)NO)[C@@](O)(CCCc1ccccc1)C(=O)N[C@@H](CC1CCCCC1)C(=O)NCCc1ccccc1", "REPORTED_MEASUREMENT": 1.9}
{"COMPOUND": "CNC(=O)[C@H](Cc1c[nH]c2ccccc12)NC(=O)[C@](O)(CC(C)C)[C@H](C)C(=O)NO", "REPORTED_MEASUREMENT": 0.6}
{"COMPOUND": "CNC(=O)[C@H](Cc1ccc(N)cc1)NC(=O)[C@](O)(CC(C)C)[C@H](C)C(=O)NO", "REPORTED_MEASUREMENT": 2}
{"COMPOUND": "CNC(=O)[C@H](Cc1ccc(Cl)c(Cl)c1)NC(=O)[C@](O)(CC(C)C)[C@H](C)C(=O)NO", "REPORTED_MEASUREMENT": 0.002}

*Q* Report IC50 from 92 kDa gelatinase of human origin (Homo sapiens) testing of CNC(=O)[C@H](Cc1ccc(OC)cc1)NC(=O)[C@](O)(CC(C)C)[C@H](OC)C(=O)NO
*A* 140

*Q* Report IC50 from 92 kDa gelatinase of human origin (Homo sapiens) testing of CNC(=O)[C@H](Cc1ccc(Cl)c(Cl)c1)NC(=O)[C@](O)(CC(C)C)[C@H](O)C(=O)NO
*A* 7

*Q* Report IC50 from 92 kDa gelatinase of human origin (Homo sapiens) testing of CNC(=O)[C@H](Cc1ccc(OC)cc1)NC(=O)[C@](O)(C(C)C)[C@H](C)C(=O)NO
*A* 17

*Q* Report IC50 from 92 kDa gelatinase of human origin (Homo sapiens) testing of CNC(=O)[C@H](Cc1ccc(Cl)cc1)NC(=O)[C@](O)(CC(C)C)[C@H](O)C(=O)NO
*A* 54

All figures here come from patent US6344457B1.
